tested on: Plasmodium falciparum; test: Antimalarial activity against blood-stage Plasmodium falciparum 3D7 after 48 hr by Giemsa staining method; assay type: functional, organism-based; conditions: 3D7, 48 h
Outcome Measure: log10 IC50 (log10 of the value in µg/mL)
// units: µg/mL (pre-log); metric: IC50; scale: log10

The cases that follow already have their log10 IC50 on record.
Query: Please respond with reported log10 IC50 (system Plasmodium falciparum) for `COc1ccc(/C=C/C(=O)c2ccc(N3CCCCC3)cc2)cc1OC` .
Response: 0.50

Query: Report log10 IC50 on Plasmodium falciparum for this entry: `O=C(/C=C/c1cc2ccccc2nc1Cl)c1ccc(N2CCOCC2)cc1`
Response: 1.23

Query: Tell me log10 IC50 of `COc1cc(/C=C/C(=O)c2ccc(N3CCCC3)cc2)cc(OC)c1OC` when tested on Plasmodium falciparum.
Response: 1.11

Query: Fill in log10 IC50 for `COc1ccc(/C=C/C(=O)c2ccc(-n3cncn3)cc2)cc1` tested with Plasmodium falciparum.
Response: 0.66

Query: # return log10 IC50 for `COc1ccc(/C=C/C(=O)c2ccc(N3CCCC3)cc2)cc1` , test system: Plasmodium falciparum
Response: 0.80

Query: Provide log10 IC50, recorded with Plasmodium falciparum, of `COc1cc(/C=C/C(=O)c2ccc(-n3ccnc3)cc2)cc(OC)c1OC`
Response: 0.39

Query: // fetch log10 IC50 for `COc1ccc(/C=C/C(=O)c2ccc(-n3cccc3)cc2)cc1` ; system: Plasmodium falciparum
Response: 0.21

Query: Find log10 IC50 for `COc1cc(/C=C/C(=O)c2ccc(N3CCCC3)cc2)cc(OC)c1` on Plasmodium falciparum and write it down.
Response: 0.93

Query: Give log10 IC50 only, for `COc1cc(/C=C/C(=O)c2ccc(N3CCNCC3)cc2)cc(OC)c1OC` , using Plasmodium falciparum data.
Response: 0.95

Query: Enter recorded log10 IC50 with Plasmodium falciparum for `COc1ccc(/C=C/C(=O)c2ccc(N3CCOCC3)cc2)cc1` here.
Response: 0.90

Next:
Query: Please look at `COc1cc(/C=C/C(=O)c2ccc(-n3cccc3)cc2)cc(OC)c1OC` and tell me its recorded log10 IC50 on Plasmodium falciparum.
Response: 0.31
